Reported pKd by item:
experimentalSystem: T1, hu_CXCR2_N-term (1-17)-BSA (human; bovine, coupled to carrier protein BSA; C-terminal cysteine introduced to enable coupling)
T1 construct: Synthetic linear peptide chemically coupled to the carrier; also called CXCR2_aa1-17_BSA; CXCR2 aa1-17 BSA
T1 sequence (P02769 25-607 limits assumed): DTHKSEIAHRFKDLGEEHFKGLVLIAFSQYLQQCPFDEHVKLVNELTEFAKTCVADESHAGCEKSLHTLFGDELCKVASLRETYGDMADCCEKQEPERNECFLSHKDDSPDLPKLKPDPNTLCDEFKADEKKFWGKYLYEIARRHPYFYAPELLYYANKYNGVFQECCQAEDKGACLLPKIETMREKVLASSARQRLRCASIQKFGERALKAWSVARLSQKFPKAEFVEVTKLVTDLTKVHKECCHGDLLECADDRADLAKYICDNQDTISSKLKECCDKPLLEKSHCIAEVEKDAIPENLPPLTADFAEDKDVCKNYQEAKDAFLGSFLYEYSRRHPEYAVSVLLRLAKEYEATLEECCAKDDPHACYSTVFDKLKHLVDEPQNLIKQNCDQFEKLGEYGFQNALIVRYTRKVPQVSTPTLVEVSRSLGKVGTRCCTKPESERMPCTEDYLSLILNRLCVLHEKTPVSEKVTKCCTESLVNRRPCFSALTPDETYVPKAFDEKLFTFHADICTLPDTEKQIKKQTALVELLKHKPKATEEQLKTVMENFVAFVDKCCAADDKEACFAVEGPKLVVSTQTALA
procedureSummary: SPR (Biacore), peptide-BSA immobilized, Fab analyte, steady-state fit
pKd: −log10 of the molar value.
reportedProperty: pKd

1. CX2-Mab #6 (Fab format) (Fab, V domains shown) VH: EVQLLESGGGLVQPGGSLRLSCAASGFTFSSYTMSWVRQAPGKGLEWVSAIHSSGSSTYYADSVKGRFTISRDNSKNTLYLQMNSLRAEDTAVYYCARVPAYYGFDHWGQGTLVTVSS VL: DIELTQPPSVSVSPGQTASITCSGDSLGAFYVHWYQQKPGQAPVLVIYRTNNRPSGIPERFSGSNSGNTATLTISGTQAEDEADYYCASYASRNRVFGGGTKLTVLG; 6.45
2. CX2-Mab #5 (Fab format) (Fab, V domains shown) VH: EVQLLESGGGLVQPGGSLRLSCAASGFTFNSNAMSWVRQAPGKGLEWVSFISYSGSHTYYADSVKGRFTISRDNSKNTLYLQMNSLRAEDTAVYYCARYTRFLSRPAFDPWGQGTLVTVSS VL: DIVLTQPPSVSGAPGQRVTISCTGSSSNIGAGYDVHWYQQLPGTAPKLLIYYNSKRPSGVPDRFSGSKSGTSASLAITGLQAEDEADYYCGAYDRKMNSYVFGGGTKLTVLG; 6.84
